system: UO-31 renal; test: NCI-60 one-dose screen, 48 h; details: 10 µM unless noted
Compounds without any hit were thinned out: in the full panel of roughly 83,000, 20% have a hit. Activity calls are given as the source filed them. Rule for the calls: active = growth percent below 10; inactive = the rest.
Labels: true (1) = active, false (0) = inactive

[
  {
    "compound": "Cc1ccc(-n2nc3c(c(C#N)c2=O)CC(c2ccccc2Cl)C([N+](=O)[O-])=C3O)cc1 (centres undefined)",
    "system": "UO-31 renal",
    "category": "false (0)"
  },
  {
    "compound": "COc1cc(/C=C2\\C(=O)ON=C2C)cc(OC)c1OC",
    "system": "UO-31 renal",
    "category": "false (0)"
  },
  {
    "compound": "N=C1CCC(=N)c2c1c(O)c1ccccc1c2O",
    "system": "UO-31 renal",
    "category": "false (0)"
  },
  {
    "compound": "CCN1C(=O)N(CC)C2C1NN=c1s/c(=C\\c3cccs3)c(=O)n12 (centres undefined)",
    "system": "UO-31 renal",
    "category": "false (0)"
  },
  {
    "compound": "O=C(Nc1ccc(Nc2ccncc2)cc1)c1ccc(C(=O)Nc2ccc(Nc3ccncc3)cc2)cc1",
    "system": "UO-31 renal",
    "category": "false (0)"
  },
  {
    "compound": "COc1ccccc1NC(=O)N/C(N)=N/c1nc2ccccc2s1",
    "system": "UO-31 renal",
    "category": "false (0)"
  },
  {
    "compound": "CCN(CC)S(=O)(=O)c1cccc(-c2ccc3c(NC(=O)C4CC4)n[nH]c3c2)c1",
    "system": "UO-31 renal",
    "category": "false (0)"
  },
  {
    "compound": "C#CCOc1nc(C)cc(C)c1C#N",
    "system": "UO-31 renal",
    "category": "false (0)"
  },
  {
    "compound": "C[n+]1cc2cc(C(N)=O)[nH]c3c(=N)c(Cl)c(N)c1c23",
    "system": "UO-31 renal",
    "category": "false (0)"
  },
  {
    "compound": "O=C(COc1ccc(/C=C2\\Oc3ccccc3C2=O)cc1)Nc1nc2ccccc2s1",
    "system": "UO-31 renal",
    "category": "true (1)"
  },
  {
    "compound": "Cc1c2c(c(C)c3c1oc1cc(O)ccc13)C(=O)N(CCN1CCCCC1)C2=O",
    "system": "UO-31 renal",
    "category": "false (0)"
  },
  {
    "compound": "COc1ccc(C2c3ccc4ccccc4c3Oc3nc(C)[nH]c(=O)c32)cc1 (centres undefined)",
    "system": "UO-31 renal",
    "category": "true (1)"
  },
  {
    "compound": "CCOC(CN=Cc1cc(C)c2[nH]c3ccccc3c2c1C)OCC",
    "system": "UO-31 renal",
    "category": "false (0)"
  },
  {
    "compound": "CN(c1ccccc1)c1ccc2c(c1)OCCC21CC1Nc1cnccc1C(=O)O (centres undefined)",
    "system": "UO-31 renal",
    "category": "false (0)"
  },
  {
    "compound": "COc1cc(/C=C/C(=O)c2ccc(Nc3nc(Nc4ccc(F)cc4)nc(Nc4ccc(Cl)cc4)n3)cc2)cc(OC)c1OC",
    "system": "UO-31 renal",
    "category": "false (0)"
  },
  {
    "compound": "CCc1ccccc1NC(=O)/C(C#N)=C/c1ccc(OC)cc1",
    "system": "UO-31 renal",
    "category": "false (0)"
  },
  {
    "compound": "c1ccc2c(c1)nc(CN1CCOCC1)n1cc(N3CCCC3)nc21",
    "system": "UO-31 renal",
    "category": "false (0)"
  },
  {
    "compound": "CC(=O)N1N=C(c2ccc(Nc3nc(Nc4ccc(F)cc4)nc(Nc4ccc(F)cc4)n3)cc2)CC1c1cccc([N+](=O)[O-])c1 (centres undefined)",
    "system": "UO-31 renal",
    "category": "false (0)"
  },
  {
    "compound": "COc1ccc(C(=NN=C(N)N)c2ccc(OC)cc2)cc1",
    "system": "UO-31 renal",
    "category": "false (0)"
  }
]
